Source: the supplement of paper PMC12338614

Entries annotated with measured STK11 functional score
B1: library; numbered along this chain (parent)
chain: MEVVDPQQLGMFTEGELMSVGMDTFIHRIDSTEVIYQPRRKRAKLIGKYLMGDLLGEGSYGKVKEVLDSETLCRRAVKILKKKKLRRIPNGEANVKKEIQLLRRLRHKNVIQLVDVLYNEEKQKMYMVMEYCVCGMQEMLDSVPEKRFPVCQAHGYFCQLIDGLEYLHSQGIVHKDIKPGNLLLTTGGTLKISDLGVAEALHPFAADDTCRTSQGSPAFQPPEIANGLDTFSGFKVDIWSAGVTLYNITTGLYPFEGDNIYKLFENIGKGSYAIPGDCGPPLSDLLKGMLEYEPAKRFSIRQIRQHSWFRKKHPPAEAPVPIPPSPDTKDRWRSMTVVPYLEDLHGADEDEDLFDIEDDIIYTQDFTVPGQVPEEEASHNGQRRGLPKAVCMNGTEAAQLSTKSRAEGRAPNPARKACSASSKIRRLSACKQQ

variants of: B1; experiment: STK11 functional score (HeLa growth suppression), rescaled enrichment; synonymous median = 1, nonsense median = 0 (normalised score); details: with HeLa; variant type: missense

change: P323N
STK11 functional score: 1.53
//
change: E130S
STK11 functional score: 1.4
//
change: I172S
STK11 functional score: 0.549
//
change: I360A
STK11 functional score: 1.6
//
change: E357Q
STK11 functional score: 1.13
//
change: N247K
STK11 functional score: 0.794
//
change: S404A
STK11 functional score: 1.31
//
change: K416W
STK11 functional score: 0.693
//
change: C73G
STK11 functional score: 1
//
change: S419I
STK11 functional score: 1.16
//
change: A417S
STK11 functional score: 1.25
//
change: L54F
STK11 functional score: 0.99
//
change: S404I
STK11 functional score: 1.22
//
change: L285T
STK11 functional score: -0.111
//
change: L252M
STK11 functional score: 0.771
//
change: T402L
STK11 functional score: 1.23
//
change: P222V
STK11 functional score: 0.826
//
change: R304F
STK11 functional score: 0.0963
//
change: K312G
STK11 functional score: 1.62
//
change: I46A
STK11 functional score: 1.5
//
change: N109R
STK11 functional score: 0.707
//
change: R425Y
STK11 functional score: 1.54
//
change: G10S
STK11 functional score: 1.17
//
change: M127L
STK11 functional score: 0.382
//
change: E145L
STK11 functional score: 1.16
//
change: L50H
STK11 functional score: 1.08
//
change: S232M
STK11 functional score: 0.515
//
change: G58S
STK11 functional score: 0.988
//
change: T250A
STK11 functional score: 1.01
//
change: G47R
STK11 functional score: 1.31
//
change: S401D
STK11 functional score: 1.19
//
change: E98K
STK11 functional score: 1.12
//
change: T24I
STK11 functional score: 1.02
//
change: R75C
STK11 functional score: 1.55
//
change: V116H
STK11 functional score: 1.18
//
change: R147L
STK11 functional score: 0.461
//
change: G188P
STK11 functional score: 1.36
//
change: K97E
STK11 functional score: 1.42
//
change: K146Q
STK11 functional score: 1.52
//
change: Q399K
STK11 functional score: 0.826
//
change: E256F
STK11 functional score: 0.982
//
change: I46M
STK11 functional score: 0.908
//
change: P217L
STK11 functional score: 0.248
//
change: N119E
STK11 functional score: 0.994
//
change: G288D
STK11 functional score: -0.347
//
change: G276A
STK11 functional score: 1.41
